Reference source: paper PMC4336329

Target: human ether-à-go-go-related gene (hERG) potassium channel (human, UniProt Q12809);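 note: peak tail current of the secondary pulse compared with the same well before compound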
Sequence (Q12809 whole entry, looked up): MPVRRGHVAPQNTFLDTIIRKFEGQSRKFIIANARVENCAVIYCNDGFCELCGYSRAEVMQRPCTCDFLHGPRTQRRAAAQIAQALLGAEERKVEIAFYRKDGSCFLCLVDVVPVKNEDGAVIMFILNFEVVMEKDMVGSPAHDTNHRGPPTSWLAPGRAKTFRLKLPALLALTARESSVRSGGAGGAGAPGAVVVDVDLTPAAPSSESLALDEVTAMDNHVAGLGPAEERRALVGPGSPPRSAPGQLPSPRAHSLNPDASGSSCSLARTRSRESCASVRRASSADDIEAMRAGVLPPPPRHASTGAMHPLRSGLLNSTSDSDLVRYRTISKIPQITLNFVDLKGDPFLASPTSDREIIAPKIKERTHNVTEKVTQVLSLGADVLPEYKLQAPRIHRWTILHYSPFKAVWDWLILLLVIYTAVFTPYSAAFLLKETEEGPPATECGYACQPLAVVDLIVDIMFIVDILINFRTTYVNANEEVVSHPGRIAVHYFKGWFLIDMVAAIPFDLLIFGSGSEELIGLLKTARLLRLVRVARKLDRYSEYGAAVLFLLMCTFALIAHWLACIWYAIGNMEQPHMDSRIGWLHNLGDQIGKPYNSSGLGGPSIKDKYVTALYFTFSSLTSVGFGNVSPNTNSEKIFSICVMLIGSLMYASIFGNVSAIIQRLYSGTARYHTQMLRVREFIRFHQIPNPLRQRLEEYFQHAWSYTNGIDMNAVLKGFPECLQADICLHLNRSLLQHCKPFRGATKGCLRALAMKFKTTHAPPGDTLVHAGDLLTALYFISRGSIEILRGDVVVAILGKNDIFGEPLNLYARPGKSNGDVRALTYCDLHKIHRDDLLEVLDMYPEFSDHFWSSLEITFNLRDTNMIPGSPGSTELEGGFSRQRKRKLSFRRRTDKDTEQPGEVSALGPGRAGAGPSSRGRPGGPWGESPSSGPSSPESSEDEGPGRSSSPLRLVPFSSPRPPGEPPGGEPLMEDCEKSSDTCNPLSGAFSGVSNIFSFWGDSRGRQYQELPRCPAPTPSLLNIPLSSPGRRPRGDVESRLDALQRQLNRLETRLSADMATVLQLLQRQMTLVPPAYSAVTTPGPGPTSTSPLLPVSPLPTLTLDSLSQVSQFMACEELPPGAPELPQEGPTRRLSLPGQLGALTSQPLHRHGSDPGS
Assay: primary screen, population patch clamp on CHO cells stably expressing hERG; higher = less effect of the substance
Description: Briefly, Chinese hamster ovary (CHO) cells stably expressing the hERG channel were dislodged from tissue culture flasks and dispensed into PPC plates. […] During the recording, background leak currents were estimated by a 100 ms step to -80 mV from an initial holding potential of -70 mV and subtracted from the subsequent current measurement. The campaign was conducted in two phases using slight differences in recording protocol. […]
The campaign covered roughly 310,000 compounds. About 14,000 (4.5%) showed an effect of 50% or more. Effects have a minus sign here. The list comes from a sample in which strong results are over-represented; it also holds close analogues and randomly drawn compounds.
measuredParameter: hERG current change (%, negative = inhibition) at 10uM (%)
// units = %; emit number, no label

Solved cases below.
compound	valueObserved
CN(C)CCN(CC1CCCN(Cc2ccccc2F)C1)C(=O)c1ccc(Cl)cc1 (centres unmarked)	-14
Cc1nn(C)c(C)c1NC(=O)CSc1nnc(C)n1-c1ccccc1	-0.523
CN(CC(=O)Nc1cccc(F)c1)C(=O)C1CC(=O)N(Cc2ccco2)C1 (centres unmarked)	-8

Need hERG current change (%, negative = inhibition) at 10uM of "CN1CCc2c(sc(N)c2C(=O)O)C1" , thanks.
20.8

Look at this compound and give its reported hERG current change (%, negative = inhibition) at 10uM. "Cc1ccc2cc(C=C(C#N)C#N)c(N3CCCCC3)nc2c1"
15.3

* * *

Target: human ether-à-go-go-related gene (hERG) potassium channel (human);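 note: peak tail current of the secondary pulse compared with the same well before compound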
Test: primary screen, population patch clamp on CHO cells stably expressing hERG; higher = less effect of the substance
Among all 310,000 compounds or so, about 14,000 (4.5%) showed an effect of 50% or more. Effects have a minus sign here. The list comes from a sample in which strong results are over-represented; it also holds close analogues and randomly drawn compounds.
measuredParameter: hERG current change (%, negative = inhibition) at 10uM (%)
Response body: numeric value in %, unit text excluded.

Solved cases (10 shown):
molecule	valueObserved
COc1ccccc1OCC(O)Cn1nc(C)cc1C (centres unmarked)	9.76
COc1ccc(-c2c(C)n([O-])c(C)c(-c3ccccc3)[n+]2=O)cc1OC	7.35
COc1ccc(NC(=O)N2CCC(Cc3ccccc3)CC2)cc1	-3.45
CSc1ccc(NC(=O)NCCCN2CCC(Cc3ccccc3)CC2)cc1	-75.9
O=C(NCCCN1CCN(Cc2ccccc2Cl)CC1)Nc1ccccc1	-56.8
CC(=O)c1ccc(N2CCN(C(=O)C3(S(=O)(=O)c4ccc(Cl)cc4)CC3)CC2)cc1	-51.8
Cc1ccccc1NC(=O)NCCCN1CCN(C2CCCCC2)CC1	-9.26
COc1ccc(NC(=O)NCCCCc2ccccc2)cc1	1.06
O=C(CSc1nc(-c2ccccc2)cs1)NCc1ccco1	-14.9
Cc1ccccc1NC(=O)NCCCN1CCCC1	26.6

Turning now to a further record.
Can you look up the measured hERG current change (%, negative = inhibition) at 10uM of "O=C(NCCN1CCN(c2ccccc2Cl)CC1)Nc1ccccc1" for me?
-34.1

* * *

Target: human ether-à-go-go-related gene (hERG) potassium channel (human, UniProt Q12809);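 note: peak tail current of the secondary pulse compared with the same well before compound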
Test: primary screen, population patch clamp on CHO cells stably expressing hERG; higher = less effect of the substance
Among all 310,000 compounds or so, about 14,000 (4.5%) showed an effect of 50% or more. The effect is printed as a negative number. The list comes from a sample in which strong results are over-represented; it also holds close analogues and randomly drawn compounds.
measuredParameter: hERG current change (%, negative = inhibition) at 10uM
Give your result as the value with the unit written after it.

compound	systemName	valueObserved
Cc1ccc(OCC(=O)N2N=C(c3ccc(Cl)cc3)CC2c2ccco2)c([N+](=O)[O-])n1 (stereo not shown)	human ether-à-go-go-related gene (hERG) potassium channel (human, UniProt Q12809)	-63.3%
O=C(CC1OC(=O)c2ccccc21)Nc1cc(Cl)ccc1N1CCCC1 (stereo not shown)	human ether-à-go-go-related gene (hERG) potassium channel (human, UniProt Q12809)	-8.18%
COc1ccc(C(=O)NCC(=O)OCC(=O)N2N=C(c3ccc(Cl)cc3)CC2c2ccco2)cc1OC (stereo not shown)	human ether-à-go-go-related gene (hERG) potassium channel (human, UniProt Q12809)	-5.57%
OC(COCc1cccs1)CN1CCN(c2ccccc2Cl)CC1 (stereo not shown)	human ether-à-go-go-related gene (hERG) potassium channel (human, UniProt Q12809)	-71%
Cc1cccc(NC(=O)CSCC(=O)Nc2cc(Cl)ccc2N2CCN(C)CC2)c1	human ether-à-go-go-related gene (hERG) potassium channel (human, UniProt Q12809)	-72.8%
Nc1nc(SCC(=O)NCCN2CCOCC2)nc2sc3c(c12)CCC3	human ether-à-go-go-related gene (hERG) potassium channel (human, UniProt Q12809)	-65.9%
N#CCC(=O)N1CCN(Cc2ccc3c(c2)OCO3)CC1	human ether-à-go-go-related gene (hERG) potassium channel (human, UniProt Q12809)	16.3%
O=C(COc1ccc(Cl)cc1)N1CCN(Cc2ccc3c(c2)OCO3)CC1	human ether-à-go-go-related gene (hERG) potassium channel (human, UniProt Q12809)	-52.6%
CCc1ccc(OCC(=O)N2CCN(Cc3ccc4c(c3)OCO4)CC2)cc1	human ether-à-go-go-related gene (hERG) potassium channel (human, UniProt Q12809)	-15.9%
O=C(c1ccc(F)cc1)N1CCCC(N2CCN(Cc3ccc4c(c3)OCO4)CC2)C1 (stereo not shown)	human ether-à-go-go-related gene (hERG) potassium channel (human, UniProt Q12809)	-22.2%

Data request, read-out hERG current change (%, negative = inhibition) at 10uM, for CCOC(=O)C1CCN(CC(O)COCc2cccs2)CC1 (stereo not shown)
-38%

Recorded hERG current change (%, negative = inhibition) at 10uM of "COc1ccc(CNC(=O)COC(=O)c2n[nH]c3ccccc23)cc1" , please.
7.27%

hERG current change (%, negative = inhibition) at 10uM lookup needed for "O=C(COc1ccc(S(=O)(=O)N2CCOCC2)cc1)N1CCN(Cc2ccc3c(c2)OCO3)CC1" , thanks.
-10%

Which hERG current change (%, negative = inhibition) at 10uM is reported for this compound? COCC(=O)OCC(=O)N1N=C(c2ccc(Cl)cc2)CC1c1ccco1 (stereo not shown)
-28.1%

// lookup hERG current change (%, negative = inhibition) at 10uM for "Cc1ccc(NC(=O)CSCC(=O)Nc2ccccc2N2CCCC2)cc1"
-13.6%

Could you tell me which hERG current change (%, negative = inhibition) at 10uM is on file for "COC(=O)C1=C(C(=O)OC)SC2(S1)C(C(=O)OC)=C(C(=O)OC)SC1=C2c2cc(C)ccc2NC1(C)C" ?
14.3%

I have this compound here, "Oc1ccccc1Nc1ccccn1" , and I need its recorded hERG current change (%, negative = inhibition) at 10uM.
6.88%

Given the entry "Fc1ccccc1-c1nc2c(s1)CCc1onc(-c3ccc(Br)cc3)c1-2" , report its measured hERG current change (%, negative = inhibition) at 10uM.
11.4%

Quick check: hERG current change (%, negative = inhibition) at 10uM of "Cc1cc(NC(=O)CSCC(=O)Nc2cc(Cl)ccc2N2CCN(C)CC2)no1" ?
-25.7%

Reported hERG current change (%, negative = inhibition) at 10uM for "CC(=O)Oc1ccc(NC(=O)Cc2ccccc2)cc1" : what is it?
24.9%

* * *

Target: human ether-à-go-go-related gene (hERG) potassium channel (human, UniProt Q12809);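 note: peak tail current of the secondary pulse compared with the same well before compound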
Test: primary screen, population patch clamp on CHO cells stably expressing hERG; higher = less effect of the substance
Protocol: Briefly, Chinese hamster ovary (CHO) cells stably expressing the hERG channel were dislodged from tissue culture flasks and dispensed into PPC plates. […] During the recording, background leak currents were estimated by a 100 ms step to -80 mV from an initial holding potential of -70 mV and subtracted from the subsequent current measurement. The campaign was conducted in two phases using slight differences in recording protocol. […]
Screen size: about 310,000 compounds; about 14,000 (4.5%) showed an effect of 50% or more. Effects have a minus sign here. For the sample, strong results were picked, then their nearest neighbours and some compounds at random.
Kindly return Fulfilled if reported hERG current change (%, negative = inhibition) at 10uM is no lower than -20%; return Not fulfilled if it is lower.

The examples below pair each entry with its known result.
molecule	cat
COc1ccc(S(=O)(=O)N2CCN(C(=O)NC3CCCCC3)CC2)cc1OC	Fulfilled
O=C(NCCc1ccc(C(F)(F)F)cc1)C1CC(=O)N(c2ccc3c(c2)OCCO3)C1 (stereo not shown)	Fulfilled
CN(C)c1ccc(N2C(=NC(=O)COc3ccccc3)SC3CS(=O)(=O)CC32)cc1 (stereo not shown)	Fulfilled
OCCC1CN(Cc2cnc(N3CCCC3)s2)CCN1Cc1ccccc1 (stereo not shown)	Fulfilled
CN(C)c1ncc(CN2CCC(CO)(CCCc3ccccc3)CC2)s1	Not fulfilled

Turning now to a further molecule:
Could you please find out whether "OCC1(CCc2ccccc2)CCN(Cc2cnc(N3CCCC3)s2)CC1" has hERG current change (%, negative = inhibition) at 10uM that meets -20% or exceeds it?
Not fulfilled
